Origin of the recorded values: paper PMC9376891

Kd for assorted binders
target: T1, Rae1(31-368)-Nup98(157-213) heterodimer (human, UniProt P78406 31-368; P52948 157-213); test: ITC; details: both partners purified
T1 construct: also called Rae1-Nup98; Rae1-Nup98 complex
T1 sequence (P78406 31-368, chain 1 of 2): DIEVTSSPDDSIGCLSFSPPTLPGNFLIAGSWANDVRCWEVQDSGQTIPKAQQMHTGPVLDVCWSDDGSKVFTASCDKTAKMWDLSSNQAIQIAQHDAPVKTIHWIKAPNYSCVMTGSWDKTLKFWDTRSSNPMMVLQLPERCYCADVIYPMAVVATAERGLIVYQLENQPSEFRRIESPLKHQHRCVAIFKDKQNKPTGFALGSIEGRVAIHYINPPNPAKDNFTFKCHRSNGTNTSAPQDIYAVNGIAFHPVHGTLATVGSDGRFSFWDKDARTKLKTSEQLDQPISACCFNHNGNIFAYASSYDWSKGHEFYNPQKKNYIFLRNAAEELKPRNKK
T1 sequence (P52948 157-213, chain 2 of 2): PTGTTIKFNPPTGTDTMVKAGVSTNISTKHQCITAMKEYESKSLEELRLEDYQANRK
Record the value in nM, omitting the unit from your answer.

Solved cases below.
Binder: YSQLDEEQPMEIA (source: synthetic peptide) [SARS-CoV-2 ORF6-D61A]
Measured Property: Kd
Unit Abbrev: nM
Meas Value: 2770
--
Binder: YSQLDEEQAMEID (source: synthetic peptide) [SARS-CoV-2 ORF6-P57A]
Measured Property: Kd
Unit Abbrev: nM
Meas Value: 890
--
Binder: YSQLDEEQPMAID (source: synthetic peptide) [SARS-CoV-2 ORF6-E59A]
Measured Property: Kd
Unit Abbrev: nM
Meas Value: 1650

For the binder YSQLDEEQPMEAD (source: synthetic peptide) [SARS-CoV-2 ORF6-I60A] , report Kd.
4200
